Target: hEP3A/Gqi5 (Homo sapiens)
Construct: expressed in transfected cells; host or cells: HEK-293(EBNA)
Sequence (P43115 whole entry): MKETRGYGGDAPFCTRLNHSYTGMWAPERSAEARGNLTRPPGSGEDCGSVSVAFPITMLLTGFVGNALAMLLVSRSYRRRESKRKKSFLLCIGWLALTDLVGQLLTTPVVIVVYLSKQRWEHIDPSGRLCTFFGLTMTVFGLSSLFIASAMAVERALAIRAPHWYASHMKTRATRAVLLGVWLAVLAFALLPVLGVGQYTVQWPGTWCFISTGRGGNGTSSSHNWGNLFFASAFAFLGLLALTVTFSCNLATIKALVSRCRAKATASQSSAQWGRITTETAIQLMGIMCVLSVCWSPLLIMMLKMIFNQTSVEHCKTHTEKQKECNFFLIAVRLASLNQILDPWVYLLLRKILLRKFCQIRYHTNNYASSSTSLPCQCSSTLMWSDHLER
Test: FLIPR calcium signal, HEK-293(EBNA) cells
Format: cell-based
Details: read-out: Functional Data (EC50 in nM) hEP3A
Measure name: EC50

What EC50 value was documented for this molecule, COC(=O)CCCCCCN1C(=O)CCCCC1CCC(O)Cc1ccccc1 (stereo not shown) ? > 10000 nM

----------
Molecular target: hEP4/Gqs5 (Homo sapiens, UniProt P35408)
Construct: expressed in transfected cells; host or cells: HEK-293(EBNA)
Sequence (P35408 whole entry): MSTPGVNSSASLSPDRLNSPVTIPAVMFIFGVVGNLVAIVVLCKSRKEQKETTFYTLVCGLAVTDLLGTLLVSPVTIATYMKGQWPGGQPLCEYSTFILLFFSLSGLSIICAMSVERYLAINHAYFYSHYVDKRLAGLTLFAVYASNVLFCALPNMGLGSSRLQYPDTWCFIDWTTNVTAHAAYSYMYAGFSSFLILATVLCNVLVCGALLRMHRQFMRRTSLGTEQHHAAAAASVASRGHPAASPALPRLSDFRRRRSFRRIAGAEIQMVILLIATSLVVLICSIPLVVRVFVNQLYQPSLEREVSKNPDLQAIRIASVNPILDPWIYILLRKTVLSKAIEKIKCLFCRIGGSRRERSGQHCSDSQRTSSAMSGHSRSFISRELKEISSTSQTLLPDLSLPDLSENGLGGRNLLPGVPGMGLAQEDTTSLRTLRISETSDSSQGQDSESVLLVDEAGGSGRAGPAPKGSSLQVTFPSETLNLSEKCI
Experiment: FLIPR calcium signal, HEK-293(EBNA) cells
Format: cell-based
Conditions: read-out: Functional Data (EC50 in nM) hEP4
Friendly reminder: EC50 below 2000 nM is Yes, at or above is No.

{"Compound": "COC(=O)CCCC#CCN1C(=O)CCCCC1C=CC(O)Cc1ccccc1 (centres unmarked)", "Label value": "No"}
{"Compound": "O=C(O)CCCC#CCN1C(=O)CCCCC1C=CC(=O)Cc1ccccc1 (centres unmarked)", "Label value": "No"}
{"Compound": "COC(=O)CCCC#CCN1C(=O)CCCCC1CCC(O)Cc1ccccc1 (centres unmarked)", "Label value": "No"}
{"Compound": "O=C(O)CCC/C=C\\CN1C(=O)CCCCC1C=CC(O)Cc1ccccc1 (centres unmarked)", "Label value": "Yes"}
{"Compound": "O=C(O)CCCC#CCN1C(=O)CCCCC1C=CC(O)Cc1ccccc1 (centres unmarked)", "Label value": "Yes"}

For COC(=O)CCCC#CCN1C(=O)CCCCC1C=CC(=O)Cc1ccccc1 (centres unmarked) , is the recorded EC50 below the cut-off of 2000 nM? No

Now try COC(=O)CCCCCCN1C(=O)CCCCC1C=CC(=O)Cc1ccccc1 (centres unmarked) . No

Now try O=C(O)CCCCCCN1C(=O)CCCCC1C=CC(=O)Cc1ccccc1 (centres unmarked) . No

Now try COC(=O)CCCCCCN1C(=O)CCCCC1CCC(=O)Cc1ccccc1 (centres unmarked) . No

Now try COC(=O)CCCCCCN1C(=O)CCCCC1C=CC(O)Cc1ccccc1 (centres unmarked) [drawing 40] . No

Now try O=C(O)CCCCCCN1C(=O)CCCCC1C=CC(O)Cc1ccccc1 (centres unmarked) . No

Now try COC(=O)CCCCCCN1C(=O)CCCCC1C=CC(O)Cc1ccccc1 (centres unmarked) [drawing 36] . No

Now try O=C(O)CCCC#CCN1C(=O)CCCCC1CCC(=O)Cc1ccccc1 (centres unmarked) . No
